# Study target: Recombinant latent TGF-beta incubated with TSP1 (Homo sapiens)
# Sequence (P07996 19-1170): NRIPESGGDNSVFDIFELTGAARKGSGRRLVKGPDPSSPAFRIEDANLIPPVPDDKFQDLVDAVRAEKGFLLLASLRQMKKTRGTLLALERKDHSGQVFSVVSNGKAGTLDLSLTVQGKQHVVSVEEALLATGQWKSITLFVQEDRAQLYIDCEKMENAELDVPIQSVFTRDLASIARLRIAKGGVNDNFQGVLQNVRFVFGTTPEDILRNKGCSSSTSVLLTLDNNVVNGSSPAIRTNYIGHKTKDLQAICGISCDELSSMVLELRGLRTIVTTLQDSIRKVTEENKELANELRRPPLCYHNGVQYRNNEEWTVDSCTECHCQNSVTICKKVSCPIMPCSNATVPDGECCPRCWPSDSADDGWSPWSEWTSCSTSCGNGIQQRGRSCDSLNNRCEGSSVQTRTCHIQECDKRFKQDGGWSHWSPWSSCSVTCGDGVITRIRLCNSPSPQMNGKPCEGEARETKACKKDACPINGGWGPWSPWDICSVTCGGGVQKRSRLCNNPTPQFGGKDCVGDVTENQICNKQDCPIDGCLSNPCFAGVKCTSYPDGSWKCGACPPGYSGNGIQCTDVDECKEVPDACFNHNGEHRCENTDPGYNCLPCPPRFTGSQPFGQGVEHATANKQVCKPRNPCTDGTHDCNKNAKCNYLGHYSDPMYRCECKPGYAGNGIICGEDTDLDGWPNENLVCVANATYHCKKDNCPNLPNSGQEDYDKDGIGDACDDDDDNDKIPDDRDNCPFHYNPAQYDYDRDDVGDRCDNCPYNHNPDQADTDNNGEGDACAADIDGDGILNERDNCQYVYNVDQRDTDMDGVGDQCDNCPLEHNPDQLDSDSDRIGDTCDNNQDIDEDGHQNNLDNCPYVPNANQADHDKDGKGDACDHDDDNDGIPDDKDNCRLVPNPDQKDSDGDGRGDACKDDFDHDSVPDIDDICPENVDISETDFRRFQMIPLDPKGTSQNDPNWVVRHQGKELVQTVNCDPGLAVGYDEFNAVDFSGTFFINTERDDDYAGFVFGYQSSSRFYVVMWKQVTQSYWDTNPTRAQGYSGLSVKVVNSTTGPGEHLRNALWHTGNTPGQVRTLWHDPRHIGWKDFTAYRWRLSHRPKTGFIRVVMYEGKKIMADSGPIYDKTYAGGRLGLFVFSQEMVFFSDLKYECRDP
# Test protocol: TSP1 activation of recombinant latent TGF-beta, ELISA specific for active TGF-beta
# Measurement parameters: latent TGF-beta 500 pM, TSP1 48 nM, compounds 1-100 pM; read-out: Activity (IC 50)
Residues, ends and D or L forms follow the SMILES beside them.
Recorded metric: IC50

INSERT INTO results (compound, recorded_metric, result) VALUES
  ('CC(=O)N[C@@H](CO)C(=O)N[C@@H](CCCCN)C(=O)N(C)[C@@H](CC(C)C)C(N)=O [Compound 10] (HELM PEPTIDE1{[ac].S.K.[meL].[am]}$$$$V2.0)', 'IC50', '0.1 to 0.5 nM'),
  ('CC(=O)N[C@@H](CO)C(=O)N[C@@H](CCCCN)C(=O)N[C@@H](CC1CC1)C(N)=O [Compound 37] (HELM PEPTIDE1{[ac].S.K.[O=C([C@H](CC1CC1)N[*:1])[*:2]].[am]}$$$$V2.0)', 'IC50', '0.05 to 0.1 nM'),
  ('CC(=O)N[C@H](C(=O)N[C@@H](CCCCN)C(=O)N[C@@H](CC(C)C)C(N)=O)C(C)O (some centres unmarked) [Compound 2] (HELM PEPTIDE1{[ac].[CC(O)[C@H](N[*:1])C(=O)[*:2]].K.L.[am]}$$$$V2.0)', 'IC50', '0.05 to 0.1 nM'),
  ('CC(=O)N[C@@H](CO)C(=O)N[C@@H](CCCCN)C(=O)N[C@@H](CC(C)C)C(N)=O [Compound 1] (Ac-Ser-Lys-Leu-NH2)', 'IC50', '0.001 to 0.01 nM');

Please look at the following compound next.
Qu. Lab note: need IC50 with Recombinant latent TGF-beta incubated with TSP1 (Homo sapiens) for entry CC(=O)N[C@@H](CO)C(=O)N[C@@H](CCCCN)C(=O)N[C@H](CC(C)C)C(N)=O [Compound 96] (HELM PEPTIDE1{[ac].S.K.[dL].[am]}$$$$V2.0) , please look it up.
Ans. 0.05 to 0.1 nM
